target: UniProt:Q72547; assay: Inhibition of recombinant HIV1 RT
Please provide measured IC50 for the entries that follow.
# output: bare number, implied unit µM

Problem: May I ask what IC50 has been recorded for O=C(c1ccc(Cl)cc1)c1nc(SCc2ccccc2)[nH]c(=O)c1O ?
Result: 113

Problem: May I ask what IC50 has been recorded for O=C(c1ccccc1)c1nc(SCc2ccccc2)[nH]c(=O)c1O ?
Result: 95.1

Value source: ChEMBL document CHEMBL4428124
